Attribution: PubChem BioAssay AID1845201

system: COR L88 complex tumor spheroid viability; test: Anticancer human tumor COR L88 cell line growth inhibition; details: second compound 0.0003 µM; first compound 0.0316 µM; active compounds read low
Rule: measured viability, T/C below 60% gets Met; anything equal to or greater than 60% gets Not met.

[
  {
    "Compound": "CC(C)n1c(=O)n(C)c2cnc3cc(F)c(-c4ccc(OCCCN5CCCCC5)nc4)cc3c21 + COc1cc2c(cc1O)CCNC21CSC2c3c(OC(C)=O)c(C)c4c(c3C(COC1=O)N1C(O)C3Cc5cc(C)c(OC)c(O)c5C(C21)N3C)OCO4",
    "Discrete label": "Not met"
  },
  {
    "Compound": "COc1ccc([C@@H](O)c2cc(-c3ncnc4cc(N5CCOCC5)ccc34)c(F)cc2Cl)nn1 + COc1cc2c(cc1O)CCNC21CSC2c3c(OC(C)=O)c(C)c4c(c3C(COC1=O)N1C(O)C3Cc5cc(C)c(OC)c(O)c5C(C21)N3C)OCO4",
    "Discrete label": "Not met"
  },
  {
    "Compound": "Cc1cc(C)c(CNC(=O)c2cc(-c3ccc(CN4CCOCC4)cc3)cc3c2cnn3C2CCCC2)c(=O)[nH]1 + COc1cc2c(cc1O)CCNC21CSC2c3c(OC(C)=O)c(C)c4c(c3C(COC1=O)N1C(O)C3Cc5cc(C)c(OC)c(O)c5C(C21)N3C)OCO4",
    "Discrete label": "Not met"
  },
  {
    "Compound": "CC1COCCN1c1cc(-c2ccnn2C)c2ccnc(-c3ccn[nH]3)c2n1 (stereo unspecified) + COc1cc2c(cc1O)CCNC21CSC2c3c(OC(C)=O)c(C)c4c(c3C(COC1=O)N1C(O)C3Cc5cc(C)c(OC)c(O)c5C(C21)N3C)OCO4",
    "Discrete label": "Met"
  },
  {
    "Compound": "[2H]c1nc(C)nc([2H])c1-c1cc(NC[C@@H](C)c2cccc3c(C(=O)NC)ccnc23)ncn1 + COc1cc2c(cc1O)CCNC21CSC2c3c(OC(C)=O)c(C)c4c(c3C(COC1=O)N1C(O)C3Cc5cc(C)c(OC)c(O)c5C(C21)N3C)OCO4",
    "Discrete label": "Not met"
  },
  {
    "Compound": "COc1cc(C)[nH]c(=O)c1CN1CCc2c(Cl)cc(C(OC)C3COC3)c(Cl)c2C1=O (stereo unspecified) + COc1cc2c(cc1O)CCNC21CSC2c3c(OC(C)=O)c(C)c4c(c3C(COC1=O)N1C(O)C3Cc5cc(C)c(OC)c(O)c5C(C21)N3C)OCO4",
    "Discrete label": "Met"
  }
]

* * *

test system: COR L88 complex tumor spheroid viability; test: Anticancer human tumor COR L88 cell line growth inhibition; conditions: second compound 1 µM; first compound 0.949 µM; active compounds read low;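 also: compound exposure lasted 7 days before viability readout; percent of DMSO vehicle-treated spheroids = 100%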
Known viability, T/C of a selection of molecules
Quantity: viability, T/C (%)

[
  {
    "Molecule": "O=C(c1cc(Cc2n[nH]c(=O)c3ccccc23)ccc1F)N1CCN(C(=O)C2CC2)CC1 + Cn1nnc2c(C(N)=O)ncn2c1=O",
    "Quantity": "viability, T/C",
    "Observed": 97.3
  },
  {
    "Molecule": "CNCc1ccc(-c2cc(-c3nc(-c4ccc(S(=O)(=O)C(C)C)cc4)cnc3N)on2)cc1 + Cn1nnc2c(C(N)=O)ncn2c1=O",
    "Quantity": "viability, T/C",
    "Observed": 36.8
  },
  {
    "Molecule": "Cn1ncnc1[C@H]1c2n[nH]c(=O)c3cc(F)cc(c23)N[C@@H]1c1ccc(F)cc1 + Cn1nnc2c(C(N)=O)ncn2c1=O",
    "Quantity": "viability, T/C",
    "Observed": 39.8
  },
  {
    "Molecule": "Cc1sc2c(c1C)C(c1ccc(Cl)cc1)=NC(CC(=O)Nc1ccc(O)cc1)c1nnc(C)n1-2 (centres undefined) + Cn1nnc2c(C(N)=O)ncn2c1=O",
    "Quantity": "viability, T/C",
    "Observed": 34.8
  }
]

* * *

tested on: COR L88 complex tumor spheroid viability; test: Anticancer human tumor COR L88 cell line growth inhibition; conditions: second compound 0.0003 µM; first compound 0.1 µM; active compounds read low;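 also: compound exposure lasted 7 days before viability readout; percent of DMSO vehicle-treated spheroids = 100%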

[
  {
    "Molecule": "Cc1cc(C)c(CNC(=O)c2cc(-c3ccc(CN4CCOCC4)cc3)cc3c2cnn3C2CCCC2)c(=O)[nH]1 + COc1cc2c(cc1O)CCNC21CSC2c3c(OC(C)=O)c(C)c4c(c3C(COC1=O)N1C(O)C3Cc5cc(C)c(OC)c(O)c5C(C21)N3C)OCO4",
    "Unit abbrev": "%",
    "viability, T/C": 67.3
  },
  {
    "Molecule": "COc1cc(C)[nH]c(=O)c1CN1CCc2c(Cl)cc(C(OC)C3COC3)c(Cl)c2C1=O (centres undefined) + COc1cc2c(cc1O)CCNC21CSC2c3c(OC(C)=O)c(C)c4c(c3C(COC1=O)N1C(O)C3Cc5cc(C)c(OC)c(O)c5C(C21)N3C)OCO4",
    "Unit abbrev": "%",
    "viability, T/C": 41.2
  },
  {
    "Molecule": "COc1ccc([C@@H](O)c2cc(-c3ncnc4cc(N5CCOCC5)ccc34)c(F)cc2Cl)nn1 + COc1cc2c(cc1O)CCNC21CSC2c3c(OC(C)=O)c(C)c4c(c3C(COC1=O)N1C(O)C3Cc5cc(C)c(OC)c(O)c5C(C21)N3C)OCO4",
    "Unit abbrev": "%",
    "viability, T/C": 63.9
  },
  {
    "Molecule": "CC(C)n1c(=O)n(C)c2cnc3cc(F)c(-c4ccc(OCCCN5CCCCC5)nc4)cc3c21 + COc1cc2c(cc1O)CCNC21CSC2c3c(OC(C)=O)c(C)c4c(c3C(COC1=O)N1C(O)C3Cc5cc(C)c(OC)c(O)c5C(C21)N3C)OCO4",
    "Unit abbrev": "%",
    "viability, T/C": 67.4
  }
]

* * *

test system: COR L88 complex tumor spheroid viability; assay: Anticancer human tumor COR L88 cell line growth inhibition; conditions: second compound 0.00949 µM; first compound 0.1 µM; active compounds read low;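 also: compound exposure lasted 7 days before viability readout; percent of DMSO vehicle-treated spheroids = 100%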
Quantity: viability, T/C (%)

[
  {
    "Molecule": "Cc1cc(C)c(CNC(=O)c2cc(-c3ccc(CN4CCOCC4)cc3)cc3c2cnn3C2CCCC2)c(=O)[nH]1 + CC[C@@]1(O)C(=O)OCc2c1cc1n(c2=O)Cc2cc3c(CN(C)C)c(O)ccc3nc2-1",
    "Observed": 81.5
  },
  {
    "Molecule": "CC(C)n1c(=O)n(C)c2cnc3cc(F)c(-c4ccc(OCCCN5CCCCC5)nc4)cc3c21 + CC[C@@]1(O)C(=O)OCc2c1cc1n(c2=O)Cc2cc3c(CN(C)C)c(O)ccc3nc2-1",
    "Observed": 52.9
  },
  {
    "Molecule": "COc1ccc([C@@H](O)c2cc(-c3ncnc4cc(N5CCOCC5)ccc34)c(F)cc2Cl)nn1 + CC[C@@]1(O)C(=O)OCc2c1cc1n(c2=O)Cc2cc3c(CN(C)C)c(O)ccc3nc2-1",
    "Observed": 68.7
  },
  {
    "Molecule": "CC1COCCN1c1cc(-c2ccnn2C)c2ccnc(-c3ccn[nH]3)c2n1 (stereo unspecified) + CC[C@@]1(O)C(=O)OCc2c1cc1n(c2=O)Cc2cc3c(CN(C)C)c(O)ccc3nc2-1",
    "Observed": 35.5
  },
  {
    "Molecule": "COc1cc(C)[nH]c(=O)c1CN1CCc2c(Cl)cc(C(OC)C3COC3)c(Cl)c2C1=O (stereo unspecified) + CC[C@@]1(O)C(=O)OCc2c1cc1n(c2=O)Cc2cc3c(CN(C)C)c(O)ccc3nc2-1",
    "Observed": 53.2
  },
  {
    "Molecule": "[2H]c1nc(C)nc([2H])c1-c1cc(NC[C@@H](C)c2cccc3c(C(=O)NC)ccnc23)ncn1 + CC[C@@]1(O)C(=O)OCc2c1cc1n(c2=O)Cc2cc3c(CN(C)C)c(O)ccc3nc2-1",
    "Observed": 72.5
  }
]

* * *

test system: COR L88 complex tumor spheroid viability; assay: Anticancer human tumor COR L88 cell line growth inhibition; details: second compound 94.9 pM; first compound 10 µM; active compounds read low;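 also: compound exposure lasted 7 days before viability readout; percent of DMSO vehicle-treated spheroids = 100%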
Known viability, T/C of a selection of compounds

[
  {
    "Compound": "COc1ccc([C@@H](O)c2cc(-c3ncnc4cc(N5CCOCC5)ccc34)c(F)cc2Cl)nn1 + COc1cc2c(cc1O)CCNC21CSC2c3c(OC(C)=O)c(C)c4c(c3C(COC1=O)N1C(O)C3Cc5cc(C)c(OC)c(O)c5C(C21)N3C)OCO4",
    "Test target": "COR L88 complex tumor spheroid viability",
    "viability, T/C [%]": 52.2
  },
  {
    "Compound": "CC(C)n1c(=O)n(C)c2cnc3cc(F)c(-c4ccc(OCCCN5CCCCC5)nc4)cc3c21 + COc1cc2c(cc1O)CCNC21CSC2c3c(OC(C)=O)c(C)c4c(c3C(COC1=O)N1C(O)C3Cc5cc(C)c(OC)c(O)c5C(C21)N3C)OCO4",
    "Test target": "COR L88 complex tumor spheroid viability",
    "viability, T/C [%]": 46.1
  },
  {
    "Compound": "Cc1cc(C)c(CNC(=O)c2cc(-c3ccc(CN4CCOCC4)cc3)cc3c2cnn3C2CCCC2)c(=O)[nH]1 + COc1cc2c(cc1O)CCNC21CSC2c3c(OC(C)=O)c(C)c4c(c3C(COC1=O)N1C(O)C3Cc5cc(C)c(OC)c(O)c5C(C21)N3C)OCO4",
    "Test target": "COR L88 complex tumor spheroid viability",
    "viability, T/C [%]": 51.1
  },
  {
    "Compound": "[2H]c1nc(C)nc([2H])c1-c1cc(NC[C@@H](C)c2cccc3c(C(=O)NC)ccnc23)ncn1 + COc1cc2c(cc1O)CCNC21CSC2c3c(OC(C)=O)c(C)c4c(c3C(COC1=O)N1C(O)C3Cc5cc(C)c(OC)c(O)c5C(C21)N3C)OCO4",
    "Test target": "COR L88 complex tumor spheroid viability",
    "viability, T/C [%]": 88
  }
]
